measurement target: Poly [ADP-ribose] polymerase 1 (Homo sapiens)
Sequence (P09874 whole entry): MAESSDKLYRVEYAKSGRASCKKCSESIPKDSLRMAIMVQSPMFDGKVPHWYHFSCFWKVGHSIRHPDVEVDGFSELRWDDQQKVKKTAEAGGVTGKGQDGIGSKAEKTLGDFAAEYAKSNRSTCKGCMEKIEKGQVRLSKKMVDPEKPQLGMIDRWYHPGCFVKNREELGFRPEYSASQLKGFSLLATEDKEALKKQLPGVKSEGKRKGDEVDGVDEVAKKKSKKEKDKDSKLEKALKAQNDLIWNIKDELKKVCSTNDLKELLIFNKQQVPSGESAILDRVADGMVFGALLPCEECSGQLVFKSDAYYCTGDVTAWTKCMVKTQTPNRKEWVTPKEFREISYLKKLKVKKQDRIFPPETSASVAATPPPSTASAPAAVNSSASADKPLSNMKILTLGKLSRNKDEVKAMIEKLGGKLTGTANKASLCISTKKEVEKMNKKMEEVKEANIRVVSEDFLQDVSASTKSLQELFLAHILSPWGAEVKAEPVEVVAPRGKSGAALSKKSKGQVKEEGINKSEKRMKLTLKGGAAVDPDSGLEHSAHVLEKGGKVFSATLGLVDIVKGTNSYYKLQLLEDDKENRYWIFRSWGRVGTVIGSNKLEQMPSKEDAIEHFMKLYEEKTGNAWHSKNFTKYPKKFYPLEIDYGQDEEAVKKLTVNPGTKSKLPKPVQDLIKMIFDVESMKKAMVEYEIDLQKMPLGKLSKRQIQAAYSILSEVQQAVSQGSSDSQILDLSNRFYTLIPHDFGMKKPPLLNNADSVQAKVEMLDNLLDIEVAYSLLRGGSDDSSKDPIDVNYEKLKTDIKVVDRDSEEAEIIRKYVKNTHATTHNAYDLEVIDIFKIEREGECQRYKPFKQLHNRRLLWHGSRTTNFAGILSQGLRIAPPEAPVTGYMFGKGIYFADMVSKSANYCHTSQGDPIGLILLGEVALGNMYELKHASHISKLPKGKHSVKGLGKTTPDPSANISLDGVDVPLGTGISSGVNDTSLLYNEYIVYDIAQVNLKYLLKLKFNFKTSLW
pIC50: −log10 of the molar value.
In this section, each of the molecules is paired with its reported pIC50.
quantity: pIC50

| molecule | test result |
| --- | --- |
| O=c1[nH]c2ccc(CCCN3CC=C(c4ccccc4)CC3)cc2c2ccccc12 | 6.92 |
| O=C(/C=C/c1ccccc1)Nc1nc(-c2ccccc2)cs1 | 6.65 |
| O=c1[nH]c(CCCN2CC=C(c3ccccc3)CC2)nc2c1CCC2 | 6.60 |
| Cc1sc(-c2ccccc2)nc1C(=O)Nc1cccc(Cc2n[nH]c(=O)c3ccccc23)c1 | 7.57 |
| O=C1NCCn2c(CN3CCCCC3)cc3cccc1c32 | 6.96 |
| O=c1[nH]c2ccc(CCN3CC=C(c4ccccc4)CC3)cc2c2ccccc12 | 7.34 |
| O=c1[nH]c(CCCN2CC=C(c3ccccc3)CC2)nc2cccc(Cl)c12 | 6.17 |
| CC1CCc2nc(CCCN3CC=C(c4ccccc4)CC3)[nH]c(=O)c2C1 (stereo not drawn) | 6.56 |
| CN(C)CCCOc1ccc(-c2nc3cccc4c3n2CCNC4=O)cc1 | 7.20 |
| O=C(CCn1c2c(c(=O)[nH]c1=O)CSCC2)NCC(=O)c1ccc(-c2ccnnc2)cc1 | 7.60 |
| Nc1ncnc2c1ncn2[C@@H]1O[C@H](COCNC(=O)CCC(=O)Nc2cccc3c2CNC3=O)[C@@H](O)[C@H]1O | 7.00 |
| CCOC(=O)CCC(=O)Nc1nc(-c2ccccc2)cs1 | 6.62 |
| CCOc1ccc(-c2csc(/N=C/c3c[nH]c4ccccc34)n2)c(OCC)c1 | 6.62 |

====

Tested on: PC-12
protocol details: Cytoprotective activity against oxygen-glucose deprivation-induced cell death in rat PC12 cells by MTT assay
Type: functional, cell-based
pEC50: −log10 of the molar value.
quantity: pEC50

| entry smiles | measurement target | quantity | test result |
| --- | --- | --- | --- |
| CCOC(=O)CCC(=O)Nc1nc2c(s1)CCCC2 | PC-12 | pEC50 | 6.02 |
| COc1cc(/C=C/C(=O)Nc2nc3c(s2)CCCC3)cc(OC)c1 | PC-12 | pEC50 | 5.98 |
| COc1cc(/C=C/C(=O)Nc2nc(-c3ccccc3)cs2)cc(OC)c1 | PC-12 | pEC50 | 6.28 |
| CCOC(=O)CCC(=O)Nc1nc(-c2ccccc2)cs1 | PC-12 | pEC50 | 6.84 |
| O=C(Nc1nc(-c2ccccc2)cs1)c1ccncc1 | PC-12 | pEC50 | 6.72 |
| O=C(/C=C/c1ccccc1)Nc1nc(-c2ccccc2)cs1 | PC-12 | pEC50 | 6.25 |
| CCOc1ccc(-c2csc(/N=C/c3c[nH]c4ccccc34)n2)c(OCC)c1 | PC-12 | pEC50 | 6.44 |

====

Tested on: PC-12
protocol details: Cytoprotective activity against H2O2-induced cell death in rat PC12 cells by MTT assay after 6 hrs
Format: functional, cell-based
condition summary: PC-12, 6 h
pEC50: −log10 of the molar value.

| entry smiles | sign qualifier | pEC50 |
| --- | --- | --- |
| O=C(Nc1nc(-c2ccccc2)cs1)c1ccncc1 | = | 5.81 |
| CCOC(=O)CCC(=O)Nc1nc(-c2ccccc2)cs1 | = | 6.27 |
| COc1cc(/C=C/C(=O)Nc2nc3c(s2)CCCC3)cc(OC)c1 | = | 5.68 |
| COc1cc(/C=C/C(=O)Nc2nc(-c3ccccc3)cs2)cc(OC)c1 | = | 5.95 |
| O=C(/C=C/c1ccccc1)Nc1nc(-c2ccccc2)cs1 | = | 6.89 |
| CCOC(=O)CCC(=O)Nc1nc2c(s1)CCCC2 | < | 5.52 |
| CCOc1ccc(-c2csc(/N=C/c3c[nH]c4ccccc34)n2)c(OCC)c1 | = | 6.49 |

====

Each entry below carries its reported Activity.
System: PC-12
protocol details: Cytoprotective activity in rat PC12 cells assessed as reduction in oxygen-glucose deprivation-induced LDH release at 3 uM
Type: functional
Set-up: scale not given: the % may be the effect or the level left
quantity: Activity (%)

| entry smiles | test result |
| --- | --- |
| CCOC(=O)CCC(=O)Nc1nc(-c2ccccc2)cs1 | 34.6 |
| O=C(/C=C/c1ccccc1)Nc1nc(-c2ccccc2)cs1 | 33.1 |
| O=C(Nc1nc(-c2ccccc2)cs1)c1ccncc1 | 20.1 |
| CCOc1ccc(-c2csc(/N=C/c3c[nH]c4ccccc34)n2)c(OCC)c1 | 28.4 |
| COc1cc(/C=C/C(=O)Nc2nc(-c3ccccc3)cs2)cc(OC)c1 | 24 |

The values you see were collected from ChEMBL document CHEMBL1143348.
